# Tested on: YCL025C
# assay method text: GFP reporter expression in TORC1-bypass yeast, mechanism study for yeast TOR pathway modulator project, S. cerevisiae, TORC1 bypass vs wild-type strains (AID 504479)
# recorded conditions: fluorescence ratio vs DMSO, at 10 µM
Activity calls are given as the source filed them.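 How the source made its calls: active means GFP ratio vs DMSO below 0.65 in a strain, using the primary screen cutoff set for that strain's protein target; inactive means the rest.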
The categories you may choose from are YES for active, NO for inactive

*Q* I'd appreciate the recorded outcome for COc1ccc([N+](=O)[O-])c(S(=O)(=O)c2ccc(Cl)cc2)n1 from this test.
*A* NO

*Q* Lab log entry: Cn1ncc(S(=O)(=O)Cc2ccccc2)c(Cl)c1=O — outcome as called in the assay?
*A* NO

*Q* What outcome does the record of this test show for O=C1ON=C(c2ccccc2)/C1=C/c1ccco1 ?
*A* NO

*Q* Hey, what did the test say about CCc1ccc(OCC(=O)NNC(=S)NC(=O)C2CC2)c(Br)c1 ?
*A* NO

*Q* Lab log entry: CC(C)(C)n1nc(-c2ccc(Cl)cc2)c2c(N)ncnc21 — outcome as called in the assay?
*A* NO
